Tested on: Escherichia coli
Assay conditions: Concentration 32 ug.mL-1;; ASSAY_TEST Inhibition of Bacterial Growth; detection method Absorption (OD600); MEDIA CAMHB; plate type 384well; NBS; CORNING #3640; time 18 hr
Description: Antibacterial activity against Escherichia coli ATCC 25922 (CO-ADD:GN_001); MIC in CAMBH media using NBS plates, by OD(600)
Results with a measured potency or affinity are listed apart.
Property measured: Inhibition (%)
Field: numeric (%). Do not append units.

See these solved cases before continuing.
{"Compound": "O=C(CSc1nnc2c(=O)n(-c3cccc(F)c3)ccn12)N1CCN(c2ccc(F)cc2)CC1", "Assayed target": "Escherichia coli", "Property measured": "Inhibition", "Measured value": 1.02}
{"Compound": "CCOc1ccc(-n2ccn3c(SCC(=O)c4c(C)[nH]c5ccccc45)nnc3c2=O)cc1", "Assayed target": "Escherichia coli", "Property measured": "Inhibition", "Measured value": -15.25}
{"Compound": "CC(=O)c1cccc(NC(=O)CSc2nnc3ccc(C(=O)Nc4cccc(F)c4)cn23)c1", "Assayed target": "Escherichia coli", "Property measured": "Inhibition", "Measured value": -3.3}
{"Compound": "COC(=O)c1ccccc1NC(=O)Cn1nc2c(Oc3ccccc3C)nccn2c1=O", "Assayed target": "Escherichia coli", "Property measured": "Inhibition", "Measured value": -5.27}
{"Compound": "COC(=O)c1ccc(NC(=O)Cn2nc3c(Oc4cccc(OC)c4)nccn3c2=O)cc1", "Assayed target": "Escherichia coli", "Property measured": "Inhibition", "Measured value": -2.01}

Q. Look up Inhibition with Escherichia coli for this compound: O=C(Cn1nc2ccc(-c3ccc(Cl)cc3)nn2c1=O)N1CCN(c2ccc(F)cc2)CC1
A. -5.18

Q. Value wanted: Inhibition (Escherichia coli) of entry COc1ccc(NC(=O)Cn2nc3c(Oc4cccc(F)c4)nccn3c2=O)cc1
A. -10.71

Q. So what Inhibition did COc1cccc(Sc2nc3ccccc3n3c(=O)n(CC(=O)Nc4ccc(C)c(C)c4)nc23)c1 get with Escherichia coli?
A. 0.23

###

Test system: Escherichia coli
Assay conditions: Concentration 32 ug.mL-1;; ASSAY_TEST Inhibition of Bacterial Growth; detection method Absorption (OD600); MEDIA CAMHB; plate type 384well; NBS; CORNING #3640; time 18 hr
Results with a measured potency or affinity are listed apart.
Property measured: Inhibition (%)
Please respond with the number in % and leave the unit unwritten.

{"Structure": "O=C(CSc1nnc2c3cc(-c4ccc(F)cc4)nn3ccn12)NCc1ccccc1Cl", "Inhibition, %": -6.39}

Q. May I ask what Inhibition has been recorded for Cc1nnc2c(S(=O)(=O)N(Cc3ccccc3F)c3cc(F)cc(F)c3)cccn12 ?
A. 2.33

Q. Fill in the blank: the reported Inhibition of CCc1ccccc1Sc1nccn2c(=O)n(CC(=O)Nc3cc(C)ccc3C)nc12 is ____.
A. 0.5

Q. I am curious: what Inhibition value has been reported for Cc1ccc(Cn2nc3c(=O)n(-c4cccc(Cl)c4C)ccn3c2=O)cc1 ?
A. -3.14

Q. Reported Inhibition for CCCc1nnc2c(=O)n(CC(=O)Nc3ccc(Br)cc3F)c3ccccc3n12 : what is it?
A. -13.67

Q. Could you tell me which Inhibition is on file for O=C(Cn1nc2ccc(-c3ccc(Cl)cc3)nn2c1=O)N1CCN(c2ccccc2)CC1 ?
A. -5.05

Q. Field request: Inhibition | item: Cc1cc2nn(CC(=O)N3CCCc4ccccc43)c(=O)n2c(Nc2ccc(F)cc2)n1
A. -0.15

Q. Which Inhibition reading was recorded for the compound CSc1cccc(NC(=O)Cn2c(=O)c3nnc(C(C)C)n3c3ccccc32)c1 ?
A. 4.25

Q. Can you share its Inhibition? I mean this compound: Cc1ccc(NC(=O)Cn2nc3ccc(SC(C)C)nn3c2=O)c(C)c1
A. 4.56

Q. Tell me the measured Inhibition of O=c1n(Cc2nc(-c3ccc4c(c3)OCO4)no2)nc2ccc(-c3ccccc3)nn12 , please.
A. -9.98

###

Test system: Staphylococcus aureus
Assay conditions: Concentration 32 ug.mL-1;; ASSAY_TEST Inhibition of Bacterial Growth; detection method Absorption (OD600); MEDIA CAMHB; plate type 384well; NBS; CORNING #3640; time 18 hr
Description: Antibacterial activity against Staphylococcus aureus MRSA ATCC 43300 (CO-ADD:GP_020); MIC in CAMBH media, using NBS plates, by OD(600)
Entries with a potency or affinity are not part of this list.
The entries below come with measured Inhibition values attached.
Numeric only. Scale: %

The examples below pair each entry with its known result.
{"Molecule": "Cc1ccc(-c2ccc3nn(Cc4nc(-c5ccc(OC(F)(F)F)cc5)no4)c(=O)n3n2)cc1", "Inhibition / %": 8.38}
{"Molecule": "Cc1cc(C)c(NC(=O)Cn2nc3ccc(SC4CCCCC4)nn3c2=O)c(C)c1", "Inhibition / %": 7.62}
{"Molecule": "COc1cccc(CNC(=O)Cn2nc3c4cc(-c5cc(C)ccc5C)nn4ccn3c2=O)c1OC", "Inhibition / %": 2.74}

Q. Which Inhibition value belongs to O=C(Cn1nc2ccc(Sc3cccc(F)c3)nn2c1=O)Nc1cccc(C(F)(F)F)c1 ?
A. 5.63

Q. What value of Inhibition has been recorded for this entry: COc1cccc(-n2ccn3c(SCc4cccc(C)c4)nnc3c2=O)c1
A. 13.81

Q. Quick check: Inhibition of Cc1ccc(NC(=O)Cn2nc3c(Sc4ccccc4)nc4ccccc4n3c2=O)cc1C ?
A. -2.53

Q. Recorded Inhibition of O=C(NCc1ccccc1)c1ccc2nn(CC(=O)N3CCN(c4ccccc4)CC3)c(=O)n2c1 , please.
A. 4.31

Q. What does the record list as Inhibition for CCc1nnc2c(S(=O)(=O)N(Cc3cccc(F)c3)c3cccc(C)c3)cccn12 ?
A. 12.77

Q. Reported Inhibition, molecule Cc1ccccc1N1CCN(c2nccn3c(=O)n(CC(=O)NCc4ccc(Cl)cc4)nc23)CC1 : ____
A. 13.83

Q. Form field: reported Inhibition of Cc1ccc(NC(=O)Cn2nc3ccc(SCc4ccc(Cl)cc4)nn3c2=O)cc1C
A. 4.09

Q. State the recorded Inhibition for this entry: O=C(Cn1nc2c(Sc3ccccc3)nccn2c1=O)Nc1ccc2c(c1)OCO2
A. -26.09

Q. # Inhibition lookup, item Cc1cccc(Oc2nccn3c(=O)n(CC(=O)Nc4ccccc4C(F)(F)F)nc23)c1C
A. 14.33

###

Tested on: Staphylococcus aureus
Assay conditions: Concentration 32 ug.mL-1;; ASSAY_TEST Inhibition of Bacterial Growth; detection method Absorption (OD600); MEDIA CAMHB; plate type 384well; NBS; CORNING #3640; time 18 hr
Potency and affinity values are given separately.
Property measured: Inhibition (%)
The figure you give is taken to be in %; do not add the unit.

Look over these answered cases.
{"Structure": "Cc1cc2nn(CC(=O)Nc3cc(F)ccc3C)c(=O)n2c(Nc2ccc(C)c(F)c2)n1", "Measure unit": "%", "Measured value": 2.63}
{"Structure": "Cc1cc(C)c(NC(=O)Cn2nc3c(Sc4ccccc4)nccn3c2=O)c(C)c1", "Measure unit": "%", "Measured value": 5.4}
{"Structure": "COc1ccc(NC(=O)CSc2nnc3c(=O)n(-c4ccccc4)ccn23)cc1OC", "Measure unit": "%", "Measured value": 9.52}

Q. Bench note: what Inhibition did O=S(=O)(c1ccc2nncn2c1)N(Cc1cccc(F)c1)c1cc(F)cc(F)c1 show?
A. 0.07

Q. Name the recorded Inhibition for O=c1c2nnc(SCc3ccccc3Cl)n2ccn1-c1ccc(F)c(F)c1 .
A. 11.5

Q. Recorded Inhibition of Cc1ccc(Cl)cc1NC(=O)Cn1nc2c(N3CCOCC3)nc3ccccc3n2c1=O , please.
A. -1.67

Q. Reported Inhibition for Cc1ccc(-n2ccn3c(=O)n(Cc4c(F)cccc4Cl)nc3c2=O)cc1C : what is it?
A. 10.39

Q. I have this molecule here, CCc1nnc2c(S(=O)(=O)N(Cc3cccc(OC)c3)c3ccccc3)cccn12 , and I need its recorded Inhibition.
A. 13.09

Q. GET /values?readout=Inhibition&item= Cc1nnc2ccc(S(=O)(=O)N(Cc3cccc(F)c3)c3cccc(Cl)c3)cn12
A. 1.14

Q. Which Inhibition is reported for this molecule? Cc1ccc(-c2ccc3nnc(CCC(=O)NCc4ccc(C(F)(F)F)cc4)n3n2)cc1C
A. 17.72

###

Test system: Escherichia coli
Assay conditions: Concentration 32 ug.mL-1;; ASSAY_TEST Inhibition of Bacterial Growth; detection method Absorption (OD600); MEDIA CAMHB; plate type 384well; NBS; CORNING #3640; time 18 hr
Potency and affinity values are given separately.
Property measured: Inhibition (%)
Quick reminder: number only, in %, skip the unit.

// known answers, use as guide
{"Structure": "Cc1nnc2ccc(S(=O)(=O)N(Cc3cc(F)cc(F)c3)c3ccc(F)cc3)cn12", "Inhibition (%)": -3.09}
{"Structure": "O=C(Cn1nc2c(N3CCOCC3)nccn2c1=O)Nc1ccccc1Br", "Inhibition (%)": 6.7}
{"Structure": "CCOc1ccccc1NC(=O)Cn1nc2c(N3CCN(c4ccccc4C)CC3)nccn2c1=O", "Inhibition (%)": -13.69}

Shifting focus to the compound that follows.
Q. Request the reported Inhibition associated with CN(C(=O)Cn1nc2nc(Nc3ccc(F)cc3)ccn2c1=O)c1ccccc1
A. -1.66
